Data credit: PubChem BioAssay (NCI)

- test description: NCI Yeast Anticancer Drug Screen. Data for the cln2 rad14 strain (AID 165);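 further: 0% = growth equal to vehicle treated cultures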
- condition parameters: S. cerevisiae cln2 rad14 strain, at 50.0 µM (retest, dose inferred, filed as 5.0), active compounds read high
- Experimental: Growth inhibition of yeast strains with defined genetic alterations is measured as a screen for potential anti-cancer activity. Selected strains with alterations in DNA damage repair or cell cycle control were exposed to compounds and growth inhibition was measured relative to vehicle treated controls. The strain used in this assay is cln2 rad14
This is part of a sample that, as a whole, favours compounds with a hit. Of some 79,000 tested, about 15% had one in any assay.
metric name: growth inhibition (%)

In [3]: df
Out[3]:
                                    compound  result_value
 0  CC(C)=CC[P+](CCCCCC[P+](CC=C(C)C)(c1ccccc1)c1ccccc1)(c1ccccc1)c1ccccc1            16
 1  O=C1c2cc([N+](=O)[O-])ccc2-c2cc([N+](=O)[O-])ccc21            99
 2                   ClC1=C(Cl)C(Cl)=C(Cl)C1            85
 3  O=C(/C=C(/Nc1ccccc1)C(=O)c1ccccc1)c1ccccc1            39
 4  COc1ccc2nc3c([N+](=O)[O-])ccc(NCCCN(C)C)c3c(N)c2c1            50
 5  Cc1cc[c]([Sn]([Cl])([O][Sn]([Cl])([c]2ccc(C)cc2)[c]2ccc(C)cc2)[c]2ccc(C)cc2)cc1            35
 6  CC#CC(=O)Nc1ccccc1CC(c1c[nH]c2ccccc12)c1c[nH]c2ccccc12            19
 7           Cc1ccccc1C(=O)c1ccc(O)c2ccccc12            65
 8           CCCCCCSc1nn(CCC#N)c(=O)[nH]c1=O            10
 9  CCCCCCN(CCCCCC)P(=O)(N1CC1C)N1CC1C (centres undefined)            99
10   CCOC(=O)c1cc(C)ccc1-c1ccc(C)cc1C(=O)OCC            17
11                               NNc1ccccc1F            65
12  CN(C)c1cc[c]([Sn]([c]2ccc(N(C)C)cc2)([c]2ccc(N(C)C)cc2)[c]2ccc(N(C)C)cc2)cc1           -12
13   S=C(N/N=C/c1ccco1)NC12CC3CC(CC(C3)C1)C2            91
14  O=C1c2ccccc2C(=O)c2cc(N3C(=O)C=CC3=O)ccc21            99
15       CN=c1ss/c(=N\C(=S)N(C)C)n1-c1ccccc1            13
16  Cc1nc(C(N)=S)sc1C(=O)CC(=O)C(=O)Nc1nc2ccccc2[nH]1             3
17  NC(=S)c1cccc(C2Nc3ccccc3O2)c1 (centres undefined)            30
18          CC(=O)/C(=C\c1cccs1)C(=O)CCN(C)C            27
